Assay: Solubility of APIs in D5W solution
Format: physicochemical
Conditions: saline or isotonic, thermodynamic from solid
Assign solubility at 2 min to each entry below.
Write the value in µg/mL as a bare number.

Which solubility at 2 min is listed for c1ccc(-c2ccc(C(c3ccccc3)n3ccnc3)cc2)cc1 (centres unmarked) ?
3.5

Try this compound too: Cc1cccc(C)c1OCC(=O)N[C@@H](Cc1ccccc1)[C@@H](O)C[C@H](Cc1ccccc1)NC(=O)[C@H](C(C)C)N1CCCNC1=O
14.9

---

Please respond with reported solubility for every item in the list.
Experiment: physchem
Conditions: organic solvent or mixture, thermodynamic from solid, Soluble (>[…]) in EtOH?

solubility for O=C1CCc2ccc(OCCCCN3CCN(c4cccc(Cl)c4Cl)CC3)cc2N1 [Aripiprazole] ?
> 1200 µg/mL

O=C1[C@H](CC[C@H](O)c2ccc(F)cc2)[C@@H](c2ccc(O)cc2)N1c1ccc(F)cc1 [Ezetimibe] , same question.
> 1200 µg/mL

Subsequent entry: Cc1cc(C#N)cc(C)c1Oc1nc(Nc2ccc(C#N)cc2)nc(N)c1Br [Etravirine]
< 1200 µg/mL

// query: O=C1NC(=O)C(c2ccccc2)(c2ccccc2)N1 [Phenytoin]
> 1200 µg/mL

What would you report for c1ccc(-c2ccc(C(c3ccccc3)n3ccnc3)cc2)cc1 (centres unmarked) [Bifonazole] ?
> 1200 µg/mL

Entry to check: COc1ccc(Cl)cc1C(=O)NCCc1ccc(S(=O)(=O)NC(=O)NC2CCCCC2)cc1 [Glibenclamide]
< 1200 µg/mL

Follow-up item: Cc1cccc(C)c1OCC(=O)N[C@@H](Cc1ccccc1)[C@@H](O)C[C@H](Cc1ccccc1)NC(=O)[C@H](C(C)C)N1CCCNC1=O [Lopinavir]
> 1200 µg/mL

Next entry: Nc1nc2c(ncn2COCCO)c(=O)[nH]1 [Acyclovir]
< 1200 µg/mL
